System: Triticum aestivum (TRZAS)
Assay: Post-emergence crop plant compatibility, greenhouse pot test
Format: in vivo
Settings: crop plant, post-emergence, 1.25 g/ha
QUANTITY KIND: Post-emergence effect at 1.25 g/ha against TRZAS in % (%)

| MOLECULE | UNIT SPEC | RESULT NUMBER |
| --- | --- | --- |
| Cn1c(C(F)(F)F)cc(=O)n(-c2cc(Oc3ccccc3OCC(=O)OCC3(C#N)CC3)c(Cl)cc2F)c1=O | % | 10 |
| Cn1c(C(F)(F)F)cc(=O)n(-c2cc(Oc3ccccc3OCC(=O)OCC3CC3(F)F)c(Cl)cc2F)c1=O (stereo not drawn) | % | 20 |
| Cn1c(C(F)(F)F)cc(=O)n(-c2cc(Oc3cc(F)ccc3OCC(=O)OCC3CC3)c(Br)cc2F)c1=O | % | 20 |
